- assay info: P-glycoprotein substrates identified in KB-8-5-11 adenocarcinoma cell line, qHTS therapeutic library screen (AID 1346987); further: nearly all actives have a fitted effect of over 65% in size
- test parameters: KB-8-5-11 (P-gp overexpressing) viability, CellTiter-Glo, 72 h; series mostly up to 44.5 µM
Records with an inconclusive call do not appear. Activity calls are given as the source filed them. The call rests on the fitted dose curve; in most records, active means well fitted inhibition curve with a large enough effect; inconclusive means small, poorly fitted or top-dose-only effect; inactive means flat fitted curve, though single readings scatter.

compound	activity change, negative = cytotoxicity
CC1=C2[C@@H]([C@H](C)CC[C@H]2/C=C(\C)C(=O)O)[C@H](O)C1	inactive
CC(=O)NC(CCC(=O)O)C(=O)NCCc1ccc(O)cc1 (centres undefined)	inactive
CC(=O)O[C@@H]1[C@@H](OC(=O)/C=C/c2ccccc2)[C@H](C)O[C@@H](O[C@H]2[C@@H]3C=CO[C@@H](O[C@@H]4O[C@H](CO)[C@@H](O)[C@H](O)[C@H]4O)[C@@H]3[C@@]3(CO)O[C@@H]23)[C@@H]1OC(C)=O	inactive
CCC(CCO[C@@H]1O[C@H](CO[C@H]2OC[C@](O)(CO)[C@H]2O)[C@@H](O)[C@H](O)[C@H]1O)C(C)(C)O (some centres undefined)	inactive

Data origin, for the record: PubChem BioAssay (NCATS)
